study_system: Tubulin (Homo sapiens) (UniProt P68371+Q9H4B7+P0DPH7+P68366+Q13509+Q71U36+P04350+Q3ZCM7+P07437+P68363+Q9BQE3+Q6PEY2+Q13885+Q9BVA1+Q9BUF5)
run_description: Displacement of [3H]colchicine from tubulin
Assay type: protein-complex assay
test_settings: concentration not given here
Label Y when inhibition is at or above 50%; anything below gets N.

[[record]]
compound = "CCOC(=O)c1[nH]c2ccc(OC)cc2c1Sc1cc(OC)c(OC)c(OC)c1"
group_label = "Y"

[[record]]
compound = "CCOC(=O)c1[nH]c2ccc(OC)cc2c1Sc1cccc(OC)c1"
group_label = "N"

[[record]]
compound = "COC(=O)c1[nH]c2ccc(Cl)cc2c1Sc1cccc(OC)c1"
group_label = "Y"

[[record]]
compound = "CCOC(=O)c1[nH]c2ccc(Cl)cc2c1Sc1cc(OC)c(OC)c(OC)c1"
group_label = "Y"

[[record]]
compound = "COC(=O)c1[nH]c2ccc(Cl)cc2c1Sc1cc(OC)cc(OC)c1"
group_label = "Y"

[[record]]
compound = "COC(=O)c1[nH]c2ccc(Cl)cc2c1Sc1cc(OC)c(OC)c(OC)c1"
group_label = "Y"

[[record]]
compound = "COC(=O)c1[nH]c2ccc(Cl)cc2c1Sc1ccccc1OC"
group_label = "N"

[[record]]
compound = "COC(=O)c1[nH]c2ccc([N+](=O)[O-])cc2c1Sc1cc(OC)c(OC)c(OC)c1"
group_label = "N"

[[record]]
compound = "CCOC(=O)c1[nH]c2ccccc2c1Sc1cccc(OC)c1"
group_label = "N"


====

Examples of molecules with documented IC50 follow.
study_system: Tubulin
run_description: Inhibition of tubulin polymerization
readout_label: IC50 (µM)

[[record]]
compound = "CCOC(=O)c1[nH]c2ccc(OC)cc2c1Sc1cc(OC)c(OC)c(OC)c1"
val = 2.4

[[record]]
compound = "COC(=O)c1[nH]c2ccc(Cl)cc2c1S(=O)(=O)c1cccc(OC)c1"
val = 31

[[record]]
compound = "CCOC(=O)c1[nH]c2cc(OC)c(OC)cc2c1Sc1cc(OC)c(OC)c(OC)c1"
val = 22

[[record]]
compound = "COC(=O)c1[nH]c2ccc(Cl)cc2c1Sc1ccccc1OC"
val = 4.2

[[record]]
compound = "CCOC(=O)c1[nH]c2ccccc2c1Sc1ccccc1OC"
val = 12

[[record]]
compound = "COC(=O)c1[nH]c2ccc([N+](=O)[O-])cc2c1Sc1cc(OC)c(OC)c(OC)c1"
val = 4.5


====

System: SCLC
run_description: Inhibition of growth of SCLC cells
Format: functional, cell-based
test_settings: Homo sapiens
readout_label: IC50 (nM)

[[record]]
compound = "CCOC(=O)c1[nH]c2ccc(OC)cc2c1Sc1cccc(OC)c1"
unit_symbol = "nM"
sign = "="
val = 584

[[record]]
compound = "CCOC(=O)c1[nH]c2ccc(OC)cc2c1Sc1ccc(OC)cc1"
unit_symbol = "nM"
sign = ">"
val = 10000

[[record]]
compound = "COC(=O)c1[nH]c2ccc(Cl)cc2c1Sc1ccccc1OC"
unit_symbol = "nM"
sign = "="
val = 7000

[[record]]
compound = "CCOC(=O)c1[nH]c2ccccc2c1Sc1ccc(OC)cc1"
unit_symbol = "nM"
sign = ">"
val = 10000

[[record]]
compound = "CCOC(=O)c1[nH]c2ccc(OC)cc2c1Sc1ccccc1OC"
unit_symbol = "nM"
sign = "="
val = 2200

[[record]]
compound = "COC(=O)c1[nH]c2ccc(Cl)cc2c1S(=O)(=O)c1cccc(OC)c1"
unit_symbol = "nM"
sign = ">"
val = 10000

[[record]]
compound = "COC(=O)c1[nH]c2ccc(Cl)cc2c1Sc1cc(OC)cc(OC)c1"
unit_symbol = "nM"
sign = "="
val = 18

[[record]]
compound = "COC(=O)c1[nH]c2ccc(Cl)cc2c1Sc1cccc(OC)c1"
unit_symbol = "nM"
sign = "="
val = 3200

[[record]]
compound = "CCOC(=O)c1[nH]c2ccccc2c1Sc1cccc(OC)c1"
unit_symbol = "nM"
sign = "="
val = 585

[[record]]
compound = "CCOC(=O)c1[nH]c2ccc(Cl)cc2c1Sc1cc(OC)c(OC)c(OC)c1"
unit_symbol = "nM"
sign = "="
val = 93


====

study_system: Tubulin
run_description: Inhibition of tubulin polymerization
readout_label: IC50

[[record]]
compound = "COC(=O)c1[nH]c2cccc(OC)c2c1Sc1ccccc1"
readout_label = "IC50"
val = "> 40 µM"

[[record]]
compound = "COC(=O)c1[nH]c2ccc(Cl)cc2c1S(=O)(=O)c1ccc(OC)cc1"
readout_label = "IC50"
val = "> 40 µM"

[[record]]
compound = "CCOC(=O)c1[nH]c2ccc(OC)cc2c1Sc1ccc(OC)cc1"
readout_label = "IC50"
val = "> 40 µM"

[[record]]
compound = "CC(C)OC(=O)c1[nH]c2ccccc2c1Sc1ccccc1"
readout_label = "IC50"
val = "18 µM"

[[record]]
compound = "COC(=O)c1[nH]c2ccc(Cl)cc2c1S(=O)(=O)c1ccccc1OC"
readout_label = "IC50"
val = "> 40 µM"

[[record]]
compound = "CCOC(=O)c1[nH]c2ccccc2c1Sc1ccc(OC)cc1"
readout_label = "IC50"
val = "> 40 µM"

[[record]]
compound = "COC(=O)c1[nH]c2ccc(OC)cc2c1S(=O)(=O)c1ccccc1"
readout_label = "IC50"
val = "> 40 µM"

[[record]]
compound = "CCCCOC(=O)c1[nH]c2ccccc2c1Sc1ccccc1"
readout_label = "IC50"
val = "> 40 µM"

[[record]]
compound = "CCC(C)OC(=O)c1[nH]c2ccccc2c1Sc1ccccc1 (stereo not drawn)"
readout_label = "IC50"
val = "> 40 µM"

[[record]]
compound = "CCOC(=O)c1[nH]c2ccc(Cl)cc2c1Sc1cc(OC)c(OC)c(OC)c1"
readout_label = "IC50"
val = "2.2 µM"

[[record]]
compound = "CCOC(=O)c1[nH]c2cc(OC)c(OC)cc2c1Sc1ccccc1"
readout_label = "IC50"
val = "14 µM"

[[record]]
compound = "COC(=O)c1[nH]c2cc(OC)c(OC)cc2c1Sc1cc(OC)c(OC)c(OC)c1"
readout_label = "IC50"
val = "> 40 µM"

[[record]]
compound = "COC(=O)c1[nH]c2ccc(Cl)cc2c1Sc1cccc(OC)c1"
readout_label = "IC50"
val = "1.8 µM"

[[record]]
compound = "CCOC(=O)c1[nH]c2cc(OC)c(OC)cc2c1S(=O)(=O)c1ccccc1"
readout_label = "IC50"
val = "> 40 µM"

[[record]]
compound = "CCOC(=O)c1[nH]c2ccccc2c1Sc1cccc(OC)c1"
readout_label = "IC50"
val = "2.9 µM"

[[record]]
compound = "COC(=O)c1[nH]c2ccc(Cl)cc2c1Sc1cc(OC)cc(OC)c1"
readout_label = "IC50"
val = "2.2 µM"

[[record]]
compound = "CCCOC(=O)c1[nH]c2ccccc2c1Sc1ccccc1"
readout_label = "IC50"
val = "> 40 µM"

[[record]]
compound = "CCOC(=O)c1[nH]c2ccc(OC)cc2c1Sc1cccc(OC)c1"
readout_label = "IC50"
val = "3.1 µM"

[[record]]
compound = "CC(C)CCOC(=O)c1[nH]c2ccccc2c1Sc1ccccc1"
readout_label = "IC50"
val = "> 40 µM"

[[record]]
compound = "O=C(OCc1ccccc1)c1[nH]c2ccccc2c1Sc1ccccc1"
readout_label = "IC50"
val = "> 40 µM"

[[record]]
compound = "COC(=O)c1[nH]c2cc(OC)ccc2c1Sc1ccccc1"
readout_label = "IC50"
val = "> 40 µM"

[[record]]
compound = "CC(C)(C)OC(=O)c1[nH]c2ccccc2c1Sc1ccccc1"
readout_label = "IC50"
val = "> 40 µM"

[[record]]
compound = "CCOC(=O)c1[nH]c2ccc(OC)cc2c1Sc1ccccc1OC"
readout_label = "IC50"
val = "16 µM"


Reference for the values: ChEMBL document CHEMBL1149381
